target: T1, Cyno CD33 ECD-HSA (cynomolgus monkey); assay: ProteOn SPR, mAb captured on anti-human Fc, antigen as analyte
T1 construct: Cyno CD33 ECD fused to HSA and a six-histidine tag; also called C33W1
pKd: −log10 of the molar value.
Recorded pKd values for a group of binders are listed next.
assay endpoint: pKd

INSERT INTO results (binder, result) VALUES
  ('C33B912 (antibody, V domains shown, OMNIMouse-derived anti-CD33 mAb; also called C33H252/C33L118; C33F550) VH: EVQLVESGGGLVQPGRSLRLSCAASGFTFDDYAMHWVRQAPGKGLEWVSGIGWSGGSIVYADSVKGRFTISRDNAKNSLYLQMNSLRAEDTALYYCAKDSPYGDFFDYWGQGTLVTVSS VL: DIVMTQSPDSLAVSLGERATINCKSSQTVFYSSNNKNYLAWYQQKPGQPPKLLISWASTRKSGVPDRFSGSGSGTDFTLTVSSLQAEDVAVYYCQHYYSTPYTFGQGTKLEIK', 9.36),
  ('C33B916 (antibody, V domains shown, OMNIMouse-derived anti-CD33 mAb; same V regions as C33B908; also called C33H256/C33L122; C33F554) VH: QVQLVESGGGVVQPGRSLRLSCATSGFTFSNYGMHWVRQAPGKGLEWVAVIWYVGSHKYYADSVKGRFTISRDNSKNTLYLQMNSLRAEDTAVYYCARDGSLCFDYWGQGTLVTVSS VL: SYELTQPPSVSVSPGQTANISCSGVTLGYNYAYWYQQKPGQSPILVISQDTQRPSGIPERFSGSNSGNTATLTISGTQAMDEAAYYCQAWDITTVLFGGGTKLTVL', 9.07),
  ('C33B914 (antibody, V domains shown, OMNIMouse-derived anti-CD33 mAb; same V regions as C33B906; also called C33H254/C33L120; C33F552) VH: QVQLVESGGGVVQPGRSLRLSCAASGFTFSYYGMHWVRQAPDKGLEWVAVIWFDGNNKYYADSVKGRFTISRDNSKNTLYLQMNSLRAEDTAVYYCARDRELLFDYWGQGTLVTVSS VL: SYELTQPPSVSVSPGQTASITCSGDELGDMYACWYQQKPGQSPLVVIYQDSKRPSGIPERFSGSNSGNTATLTISGTQAMDEAAYYCQTWDTRIAVFGGGTNLTVL', 9.36),
  ('C33B915 (antibody, V domains shown, OMNIMouse-derived anti-CD33 mAb; same V regions as C33B907; also called C33H255/C33L121; C33F553) VH: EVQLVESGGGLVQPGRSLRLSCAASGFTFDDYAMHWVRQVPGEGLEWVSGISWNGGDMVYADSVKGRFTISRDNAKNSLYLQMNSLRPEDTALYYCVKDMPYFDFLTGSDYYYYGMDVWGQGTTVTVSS VL: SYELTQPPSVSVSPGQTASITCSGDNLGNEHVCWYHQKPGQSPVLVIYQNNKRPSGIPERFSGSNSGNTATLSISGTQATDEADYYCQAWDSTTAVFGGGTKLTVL', 10.63);

Recorded values, source patent US20230322924A1.
